target: Isoform Bcl-X(L) of Bcl-2-like protein 1 (Bcl-xL) (Homo sapiens); assay: Bcl-XL binding to Bim peptide disruption – biochemical, multiplexed, bead flow cytometry, human Bcl-XL, dose response (AID 1322); conditions: inactive by the depositor's call; pH 7.4; 4 °C
Listing of recorded log10 EC50 by entry.
Please be aware that the numbers have been log10-transformed from EC50 in µM.

COCCNc1[nH]c(=S)nc2cc(OC)c(OC)cc12 = 0.87
COc1cc2nc(=S)[nH]c(NCCc3ccc(S(N)(=O)=O)cc3)c2cc1OC = -0.29
c1cncc(-c2nnc3n2N=C(c2cccs2)CS3)c1 = 0.86
COc1cc2nc(=S)[nH]c(NCC3CCCO3)c2cc1OC (stereo unspecified) = 0.67
O=C(Nc1cccc(Cl)c1)Nc1ccnc(-c2cccnc2)n1 = 0.06
Cc1ccc(OCc2cn3cccnc3n2)cc1 = 1.66
O=S1(=O)N=C(N(CCO)N=C/C=C/c2ccccc2)c2ccccc21 = 1.30
CCOc1ccc(C2=Nn3c(nnc3-c3ccccn3)SC2)cc1 = 1.16

Problem: GET /values?readout=log10 EC50&item= O=c1c2c(-c3ccccc3)csc2nc2c3ccccc3c(NCCN3CCOCC3)nn12
Solution: -0.39

Problem: GET /values?readout=log10 EC50&item= O=C(/C=C/c1ccccc1Cl)c1ccccc(=O)c1O
Solution: 1.29

Problem: GET /values?readout=log10 EC50&item= Cc1ccc(-c2ccc(/C=C/C(=O)c3ccccc3)o2)cc1
Solution: 0.72

---

target: Isoform Bcl-X(L) of Bcl-2-like protein 1 (Bcl-xL) (Homo sapiens, UniProt Q07817); assay: Bcl-XL binding to Bim peptide disruption – biochemical, multiplexed, bead flow cytometry, human Bcl-XL, dose response (AID 1322); conditions: inactive by the depositor's call; pH 7.4; 4 °C
Sequence (Q07817 whole entry G70A, canonical isoform): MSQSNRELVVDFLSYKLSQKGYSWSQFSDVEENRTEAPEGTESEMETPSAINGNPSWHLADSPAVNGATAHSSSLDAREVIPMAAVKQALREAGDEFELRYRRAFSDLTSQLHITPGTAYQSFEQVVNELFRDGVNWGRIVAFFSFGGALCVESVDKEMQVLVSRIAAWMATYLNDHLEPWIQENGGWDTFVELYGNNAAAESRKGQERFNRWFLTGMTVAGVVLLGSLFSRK
pEC50: −log10 of the molar value.
Kindly return rule met if reported pEC50 is no lower than 5; return rule not met if it is lower.

Previously resolved entries follow.
CCN1C(=O)/C(=C/C=C2\C=CN(CC)c3ccccc32)SC1=S = rule not met
Cc1ccc(C(=O)/C=C/c2ccc(-c3ccc(C)cc3)o2)cc1 = rule met

Proceed to the following item.
Problem: hey, is pEC50 for this one >= 5? c1ccc(-c2nc(N3CCCCCC3)c3ccccc3n2)nc1
Solution: rule not met

---

target: Isoform Bcl-X(L) of Bcl-2-like protein 1 (Bcl-xL) (Homo sapiens); experiment: Bcl-XL binding to Bim peptide disruption – biochemical, multiplexed, bead flow cytometry, human Bcl-XL, dose response (AID 1322); conditions: inactive by the depositor's call; pH 7.4; 4 °C
pEC50: −log10 of the molar value.
Kindly return Criterion met if reported pEC50 is no lower than 5; return Criterion not met if it is lower.

Previously resolved entries follow.
Cc1cc(C)nc(SCc2cc(=O)c(OC(=O)c3ccc(Cl)c([N+](=O)[O-])c3)co2)n1 = Criterion met
COc1ccc(C2=Nn3c(nnc3-c3ccco3)SC2)cc1OC = Criterion met
CC(=O)c1ccc(NC(=O)c2ccc3nc(-c4ccco4)c(-c4ccco4)nc3c2)cc1 = Criterion not met
CCCCNC(=O)c1ccc2nc(-c3ccco3)c(-c3ccco3)nc2c1 = Criterion not met
CCOCCCNc1nc(S)nc2cc(OC)c(OC)cc12 = Criterion met
CN(N=Cc1cccnc1)C1=NS(=O)(=O)c2ccccc21 = Criterion not met
O=C(N[N-][CH+]c1ccc(-c2ccccc2[N+](=O)[O-])o1)c1cncc(Br)c1 = Criterion not met
CCOC(=O)c1ccc(Nc2nc(C(=O)OCC)nc3ccccc23)cc1 = Criterion met
CN(N=Cc1ccncc1)C1=NS(=O)(=O)c2ccccc21 = Criterion met
O=C1/C(=C\c2ccc(-c3ccccc3Cl)o2)SC(=S)N1CC1CCCO1 (stereo unspecified) = Criterion met

Problem: hey, is pEC50 for this one >= 5? COCCCn1c(N)c(C(=O)Nc2sc3c(c2C(=O)OC)CCCC3)c2nc3ccccc3nc21
Solution: Criterion met

Problem: hey, is pEC50 for this one >= 5? CCOCCCn1c(N)c(C(=O)Nc2sc3c(c2C(=O)OC)CCCC3)c2nc3ccccc3nc21
Solution: Criterion met

Problem: hey, is pEC50 for this one >= 5? CN1CCN(C2=C(Cl)C(=O)C(c3cnc(N4CCCCC4)s3)=C(Cl)C2=O)CC1
Solution: Criterion met

Problem: hey, is pEC50 for this one >= 5? CN(N=C/C=C/c1ccccc1)C1=NS(=O)(=O)c2ccccc21
Solution: Criterion met

Problem: hey, is pEC50 for this one >= 5? COc1ccc(CCNC(=O)c2ccc3nc(-c4ccco4)c(-c4ccco4)nc3c2)cc1OC
Solution: Criterion not met

Problem: hey, is pEC50 for this one >= 5? CCOc1ccccc1-n1c(=O)c2ccccc2c2ccccc2c1=O
Solution: Criterion not met
